# System: CEM cells HIV-1 protection, formazan growth assay
# assay text: NCI AIDS Antiviral Assay
# cond: measured here: growth of uninfected CEM cells
pIC50: −log10 of the molar value. Where a SMILES comes first, the peptide text is derived from it. [ ]: non-standard residue; d: D form. Phe(4-NO2) = N[CH](Cc1ccc([N+](=O)[O-])cc1)C(=O)O
Entries and their measured pIC50 follow.
readout label: pIC50

[
  {
    "molecule": "COc1ccc(/C=C2/C(=O)N(C(=O)c3ccc(Cl)cc3)N=C2C)cc1OC",
    "readout label": "pIC50",
    "result": "< 4.45"
  },
  {
    "molecule": "CO/N=C1/c2sccc2[C@H](NC(=O)C(Cc2ccccc2)NC(=O)OC(C)(C)C)[C@@H]1O (some centres undefined)",
    "readout label": "pIC50",
    "result": "< 3.70"
  },
  {
    "molecule": "CC(NC(=O)C(Cc1ccc([N+](=O)[O-])cc1)NC(=O)C(N)CCCCN)C(=O)NC(Cc1ccc([N+](=O)[O-])cc1)C(N)=O (centres undefined) (H-K[Phe(4-NO2)]A[Phe(4-NO2)]-NH2; configuration not given here)",
    "readout label": "pIC50",
    "result": "< 3.70"
  },
  {
    "molecule": "CCCN(CCC)CCc1ccc(OC2=CCN(C)CC2)cc1",
    "readout label": "pIC50",
    "result": 4.06
  }
]

Each recorded value in this set is attributed to PubChem BioAssay AID179.
